- testTarget: Cytochrome P450 2D6 (Homo sapiens) (UniProt P10635)
- Sequence (P10635 whole entry, looked up): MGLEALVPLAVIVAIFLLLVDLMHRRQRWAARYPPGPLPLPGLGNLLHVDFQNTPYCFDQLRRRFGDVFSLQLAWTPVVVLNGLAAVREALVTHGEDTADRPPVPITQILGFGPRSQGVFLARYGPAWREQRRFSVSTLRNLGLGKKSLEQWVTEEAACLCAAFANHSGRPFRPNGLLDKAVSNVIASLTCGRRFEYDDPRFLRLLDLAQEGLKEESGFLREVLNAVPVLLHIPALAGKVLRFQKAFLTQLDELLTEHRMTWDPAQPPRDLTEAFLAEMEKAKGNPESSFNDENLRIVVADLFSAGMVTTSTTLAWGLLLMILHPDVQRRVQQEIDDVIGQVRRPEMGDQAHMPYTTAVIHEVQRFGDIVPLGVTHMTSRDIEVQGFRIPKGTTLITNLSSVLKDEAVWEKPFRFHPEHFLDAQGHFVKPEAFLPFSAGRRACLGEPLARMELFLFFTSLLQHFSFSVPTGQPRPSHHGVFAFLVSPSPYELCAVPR
- assayMethodText: Cytochrome panel assay with activity outcomes
- testContext: recombinant CYP, pro-luciferin dealkylation, luminescence, p450-cyp2d6; series mostly up to 57.1 µM
The whole screen tested about 16,000 compounds, of which about 2,600 (16%) were called active. Another 20% or so got no clear call; they are omitted. Calls come from the whole dose curve; as a rule, active = well fitted curve in the direction sought with a large enough effect; inconclusive = small, poorly fitted or top-dose-only effect, or effect the other way; inactive = no such curve, though single readings can be large or run the other way. Only a sample is shown.
Can you answer with just one of these options? active, inactive

Below, 4 molecules whose answers are already recorded.
molecule=COc1ccc(-c2cc([C@H](O)[C@@H]3CCCCN3)c3ccccc3n2)cc1 assignedlabel=active
molecule=CCN(CC)c1ccc2cc(C(C)=O)c(=O)oc2c1 assignedlabel=inactive
molecule=COCC(=O)N1CCC2(CC1)CCN(C(=O)Nc1cccc(F)c1)CC2 assignedlabel=inactive
molecule=O[C@@H](c1cc(-c2ccc(Cl)cc2)nc2ccccc12)[C@@H]1CCCCN1 assignedlabel=active

Query string: I would be grateful if you could indicate the recorded call for COC(=O)CSc1cc(C(F)(F)F)nc(-c2ccccn2)n1 .
Result string: inactive

Query string: I would be grateful if you could indicate the recorded call for CCN(CC)c1ccc(C(=O)OCc2cc(=O)oc3cc(O)ccc23)cc1 .
Result string: inactive

Query string: I would be grateful if you could indicate the recorded call for N#CC(c1ccccc1F)(c1ncc(C(F)(F)F)cc1Cl)N1CCOCC1 (configuration not stated) .
Result string: inactive

Query string: I would be grateful if you could indicate the recorded call for Cc1cccc(-n2c(Cn3nc(C)c([N+](=O)[O-])c3C)n[nH]c2=S)c1 .
Result string: inactive

Query string: I would be grateful if you could indicate the recorded call for Cc1ccc(C(=O)NNC(=O)C2CCCN(c3ncccn3)C2)cc1 (configuration not stated) .
Result string: inactive

Query string: I would be grateful if you could indicate the recorded call for O=C(O)/C=C\c1ccc(Cn2ccnc2)cc1 .
Result string: inactive
